// values below are reported EC50 (read off the curve)
Target: T1, human TSLP (human, UniProt Q969D9 29-159)
T1 construct: used biotinylated in some assays; also called hTSLP; recombinant human TSLP
T1 sequence (Q969D9 29-159 R127A/R130S limits assumed): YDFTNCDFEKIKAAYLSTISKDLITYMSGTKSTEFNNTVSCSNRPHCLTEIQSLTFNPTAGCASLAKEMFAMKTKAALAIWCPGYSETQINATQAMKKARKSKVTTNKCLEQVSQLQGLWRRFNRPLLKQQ
Experiment: ELISA, plate coated with human TSLP, test antibodies as human IgG1

Some binders with known EC50 (read off the curve) results, for comparison:
{"Binder": "TSLP-0203 (antibody, V domains shown) VH: QVQLVQSGAEVKKPGSSVKVSCKASGFTFGSYGINWVRQAPGQGLEWLGVIVPLVGVTIYAEKFQGRVTITADTSTSTAYMELSSLRSEDTAVYYCARGQEYFYWYFDLWGQGTLVTVSS VL: QSALTQPPSASGSPGQSVTISCTGTSSDIGGYDRVSWYQQHPGKAPKLMIYGVSKRPSGVPDRFSGSKSGNTASLTVSGLQAEDEADYYCSSYASGHTFGLFGGGTKLTVL", "Quantity kind": "EC50 (read off the curve)", "Assay result": "~0.1 µg/mL"}
{"Binder": "TSLP-02 (antibody, V domains shown, also called parent antibody TSLP-02) VH: QVQLVQSGAEVKKPGSSVKVSCKASGFTFGSYGINWVRQAPGQGLEWLGVIVPLVGVTIYAEKFQGRVTITADTSTSTAYMELSSLRSEDTAVYYCARGQEYFYWYFDLWGQGTLVTVSS VL: QSALTQPPSASGSPGQSVTISCSGSSSDIGGYNRVSWYQQHPGKAPKLMIYDVSKRPSGVPDRFSGSKSGNTASLTVSGLQAEDEADYYCSSYAGTDTFILFGGGTKLTVL", "Quantity kind": "EC50 (read off the curve)", "Assay result": "~0.09 µg/mL"}
{"Binder": "TSLP-0204 (antibody, V domains shown) VH: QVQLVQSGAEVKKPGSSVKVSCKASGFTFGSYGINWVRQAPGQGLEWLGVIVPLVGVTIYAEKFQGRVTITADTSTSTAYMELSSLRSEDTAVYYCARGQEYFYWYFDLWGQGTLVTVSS VL: QSALTQPPSASGSPGQSVTISCTGTSSDIGGYNRVSWYQQHPGKAPKLMIYEVNKRSSGVPDRFSGSKSGNTASLTVSGLQAEDEADYYCTSYAGTDTFVLFGGGTKLTVL", "Quantity kind": "EC50 (read off the curve)", "Assay result": "~0.1 µg/mL"}

Turning now to a further record.
State the recorded EC50 (read off the curve) for this entry: TSLP-0202 (antibody, V domains shown, also called TSLP-0202-IgG1) VH: QVQLVQSGAEVKKPGSSVKVSCKASGFTFGSYGINWVRQAPGQGLEWMGVIVPLVGVTIYAEKFQGRVTITADESTSTAYMELSSLRSEDTAVYYCARGQEYFYWYFDLWGQGTLVTVSS VL: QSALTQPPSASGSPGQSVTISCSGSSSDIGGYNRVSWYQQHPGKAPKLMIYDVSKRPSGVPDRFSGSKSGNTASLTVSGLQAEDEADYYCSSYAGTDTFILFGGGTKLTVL
~0.08 µg/mL
